Target: T1, biotinylated human DLL3 protein expressed as a human IgG1 fusion protein (human, UniProt Q9NYJ7 27-492, limits assumed, biotinylated)
T1 sequence: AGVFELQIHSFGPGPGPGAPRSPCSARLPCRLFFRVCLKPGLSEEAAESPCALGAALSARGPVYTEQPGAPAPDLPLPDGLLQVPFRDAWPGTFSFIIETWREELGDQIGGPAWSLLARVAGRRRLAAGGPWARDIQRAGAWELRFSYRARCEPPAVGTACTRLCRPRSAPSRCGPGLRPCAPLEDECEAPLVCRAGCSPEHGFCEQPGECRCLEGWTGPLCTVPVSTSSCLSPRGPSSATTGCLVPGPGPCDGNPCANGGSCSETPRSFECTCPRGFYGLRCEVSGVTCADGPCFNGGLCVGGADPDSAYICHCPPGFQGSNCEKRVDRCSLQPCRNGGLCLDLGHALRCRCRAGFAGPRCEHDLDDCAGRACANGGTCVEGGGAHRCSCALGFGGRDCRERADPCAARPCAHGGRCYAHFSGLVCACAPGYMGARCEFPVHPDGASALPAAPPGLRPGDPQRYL
Test: Octet BLI, single 50 nM
MEASURED METRIC: pKd
# pKd is unitless: minus log10 of the molar concentration; print number only

Reference set (3 entries):
4A07 anti-DLL3 trispecific protein (other, not shown: linker 1808, anti-albumin sdAb, linker 1808, anti-CD3 fragment, His6 1819) EVQLVESGGGLVQPGGSLTLSCAASGSKVSFLSMAWYRQAPGKKRELVAGISADGSTLYIDSVKGRFTISRDNAKNSVYLQMNSLRAEDTAVYYCYAYRWTTRYRYWGQGTLVTVSS : 8.01
3E09 anti-DLL3 trispecific protein (other, not shown: linker 1808, anti-albumin sdAb, linker 1808, anti-CD3 fragment, His6 1819) EVQLVESGGGLVQPGGSLTLSCAASGSSVRFLSMAWYRQAPGKKRELVAGISRDGSTDYIDSVKGRFTISRDNAKNSVYLQMNSLRAEDTAVYYCYAYRWSTRYTYWGQGTLVTVSS : 8.00
3F06 anti-DLL3 trispecific protein (other, not shown: linker 1808, anti-albumin sdAb, linker 1808, anti-CD3 fragment, His6 1819) EVQLVESGGGLVQPGGSLTLSCAASGSRVSFLSMAWYRQAPGKKRELVAGISADGSTSYIDSVKGRFTISRDNAKNSVYLQMNSLRAEDTAVYYCYAYRWATRYTYWGQGTLVTVSS : 8.00

Next binder, pKd to be filled in.
Item: 1G09 anti-DLL3 trispecific protein (other, not shown: linker 1808, anti-albumin sdAb, linker 1808, anti-CD3 fragment, His6 1819) EVQLVESGGGLVQPGGSLTLSCVASGSTSSINAMGWYRRAPGKQRELVAGISSDGSKVYADSVKGRFTISRDNAKNSVYLQMNSLRAEDTAVYYCYYFRTVSKSSMRYWGQGTLVTVSS | pKd: 8.00
